Target: SHP2-C SH2;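 note: peptide library displayed on the E. coli surface as eCPX fusions, selected cells deep-sequenced, score is each peptide's frequency after selection divided by its frequency in the input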
Test: SH2 binding enrichment of the phosphorylated peptide, bacterial display (enrichment ratio); higher = better substrate or ligand; peptides without Tyr show the background
Record y whenever SH2 binding enrichment is at 0.6 or higher; record n when lower.

INPUT: Check the entry KMKGDYYCYLA [YWHAG_Y130_R132C] : does SH2 binding enrichment equal or exceed 0.6?
OUTPUT: y

INPUT: In plain terms: is recorded SH2 binding enrichment at least 0.6 for INASGYRIGPA [ACSM1_Y477] ?
OUTPUT: y

INPUT: Quick check: does ADLTEYLSTHY [UQCRC1_Y219] have SH2 binding enrichment greater than or equal to 0.6?
OUTPUT: y

INPUT: Dear colleague, could you confirm whether PESCLYKESWI [IQGAP2_Y630_L635I] has SH2 binding enrichment at or above 0.6?
OUTPUT: n

INPUT: Threshold query (SH2 binding enrichment >= 0.6) on FGMQLYQKFMH [GRB14_Y347_N349K_YF]
OUTPUT: y

INPUT: Could you please find out whether DLRTGYSVPYG [TGM1_Y370_Y365D] has SH2 binding enrichment that meets 0.6 or exceeds it?
OUTPUT: y

INPUT: // inclusive: SH2 binding enrichment at least 0.6? input: FGISGYLVDSV [MAP2K3_Y214]
OUTPUT: y

INPUT: // inclusive: SH2 binding enrichment at least 0.6? input: RPYRPYIIRGM [LRP5_Y1531]
OUTPUT: n

INPUT: Hi, just wondering whether AEQDCYHGAIP [FER_Y461_W460C] shows SH2 binding enrichment of 0.6 or higher.
OUTPUT: y

INPUT: Entry SVTCTDSPALN [TP53_Y126_Y126D] : is its SH2 binding enrichment no less than 0.6?
OUTPUT: y

INPUT: Is the recorded value of SH2 binding enrichment equal to or greater than 0.6 for this sequence? DFLSSYSAVNE [OAT_Y85_Q90E]
OUTPUT: y

INPUT: Hi, just wondering whether QHVPDYRQNVY [PCDHGA1_Y890] shows SH2 binding enrichment of 0.6 or higher.
OUTPUT: y

INPUT: Is reported SH2 binding enrichment greater than or equal to 0.6 here: SMGMKYLEEKN [ZAP70_Y451]
OUTPUT: y

INPUT: Does SH2 binding enrichment meet or surpass 0.6 for KMGNEYVTKGQ [MYH7_Y410_V406M] ?
OUTPUT: n

INPUT: Hi, just wondering whether FSQETYFRVSN [ABCD1_Y180_Q178E_YF] shows SH2 binding enrichment of 0.6 or higher.
OUTPUT: n

Data provenance: the supplement of paper PMC10065799
